The reported measurements were obtained from patent US20210123036A1.

# MEASURED_TARGET: type I collagen gelatin (skin gelatin)
# Sequence (P02453 162-1217, chain 1 of 2): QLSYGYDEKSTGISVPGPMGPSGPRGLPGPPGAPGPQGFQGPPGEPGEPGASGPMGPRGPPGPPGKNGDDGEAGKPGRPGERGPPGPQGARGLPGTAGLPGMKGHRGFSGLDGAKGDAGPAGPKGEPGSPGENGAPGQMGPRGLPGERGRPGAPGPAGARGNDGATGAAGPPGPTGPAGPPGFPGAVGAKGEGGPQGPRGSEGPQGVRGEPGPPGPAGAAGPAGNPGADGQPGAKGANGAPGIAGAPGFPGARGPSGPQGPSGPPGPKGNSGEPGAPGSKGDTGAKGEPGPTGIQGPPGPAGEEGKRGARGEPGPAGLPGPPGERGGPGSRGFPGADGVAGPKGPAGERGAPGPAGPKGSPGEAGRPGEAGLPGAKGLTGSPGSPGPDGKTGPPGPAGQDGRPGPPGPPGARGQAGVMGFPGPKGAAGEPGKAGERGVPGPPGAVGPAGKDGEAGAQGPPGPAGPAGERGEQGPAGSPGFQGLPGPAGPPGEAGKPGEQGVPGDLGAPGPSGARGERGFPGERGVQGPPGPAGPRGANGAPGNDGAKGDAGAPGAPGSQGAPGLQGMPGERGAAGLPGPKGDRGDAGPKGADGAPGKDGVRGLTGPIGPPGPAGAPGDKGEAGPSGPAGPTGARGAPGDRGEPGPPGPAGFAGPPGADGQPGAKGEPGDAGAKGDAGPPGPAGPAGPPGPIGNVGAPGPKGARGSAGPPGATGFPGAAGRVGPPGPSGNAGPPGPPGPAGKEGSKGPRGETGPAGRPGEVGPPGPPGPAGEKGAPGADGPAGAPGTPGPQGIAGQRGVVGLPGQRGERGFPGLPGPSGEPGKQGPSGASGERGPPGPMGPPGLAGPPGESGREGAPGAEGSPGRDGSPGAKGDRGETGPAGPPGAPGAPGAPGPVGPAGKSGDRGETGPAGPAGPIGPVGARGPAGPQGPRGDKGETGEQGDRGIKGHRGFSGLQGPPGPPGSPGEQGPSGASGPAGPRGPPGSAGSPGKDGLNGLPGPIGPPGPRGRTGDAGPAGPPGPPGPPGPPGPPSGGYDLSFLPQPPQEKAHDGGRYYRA
# Sequence (P02465 80-1117, chain 2 of 2, further chain): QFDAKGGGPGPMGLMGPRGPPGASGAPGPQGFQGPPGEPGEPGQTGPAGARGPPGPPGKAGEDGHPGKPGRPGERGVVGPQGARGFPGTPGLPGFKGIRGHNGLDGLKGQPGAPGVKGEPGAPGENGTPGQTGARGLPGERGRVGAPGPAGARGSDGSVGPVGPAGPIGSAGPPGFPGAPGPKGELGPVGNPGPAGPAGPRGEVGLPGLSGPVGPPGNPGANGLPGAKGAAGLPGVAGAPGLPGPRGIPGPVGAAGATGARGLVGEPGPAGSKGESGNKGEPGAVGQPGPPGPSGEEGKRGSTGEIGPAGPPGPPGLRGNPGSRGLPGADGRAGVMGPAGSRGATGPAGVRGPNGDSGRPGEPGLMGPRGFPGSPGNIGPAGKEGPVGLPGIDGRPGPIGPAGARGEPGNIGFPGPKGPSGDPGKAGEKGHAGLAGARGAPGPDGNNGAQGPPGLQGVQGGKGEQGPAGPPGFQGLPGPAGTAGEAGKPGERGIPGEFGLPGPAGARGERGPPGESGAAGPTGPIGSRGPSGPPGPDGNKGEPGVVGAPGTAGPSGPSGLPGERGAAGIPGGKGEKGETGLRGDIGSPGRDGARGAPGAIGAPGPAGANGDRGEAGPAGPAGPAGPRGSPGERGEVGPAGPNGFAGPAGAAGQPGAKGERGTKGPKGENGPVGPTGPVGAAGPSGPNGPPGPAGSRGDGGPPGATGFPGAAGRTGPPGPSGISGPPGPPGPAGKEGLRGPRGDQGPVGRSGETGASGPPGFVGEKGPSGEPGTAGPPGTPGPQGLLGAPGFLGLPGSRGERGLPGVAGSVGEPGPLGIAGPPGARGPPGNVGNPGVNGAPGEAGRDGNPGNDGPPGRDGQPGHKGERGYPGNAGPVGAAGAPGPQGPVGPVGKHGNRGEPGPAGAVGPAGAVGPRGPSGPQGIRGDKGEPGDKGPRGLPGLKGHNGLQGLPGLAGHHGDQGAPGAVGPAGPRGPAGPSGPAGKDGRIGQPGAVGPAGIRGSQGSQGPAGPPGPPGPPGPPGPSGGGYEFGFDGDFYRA
# METHOD: ELISA-type plate binding assay, biotinylated protein on gelatin-coated plate
Where no end group is shown, it is not given here.
EXPERIMENTAL_READOUT: pKd
// pKd: -log10(molar conc.)

Consider the reported pKd for these binders:
INSERT INTO assay_data (binder, reading) VALUES
  ('SEGAPCVFPFTFLGNKYESCTSAGRSDGKMWCATTANYDDDRKWGFCPD (other, cysteine pairing not given here; also: biotinylated for plate binding assay, also called M3) [module 3 of the CBD of MMP-2]', 5.39),
  ('AEGQPCKFPFRFQGTSYDSCTTEGRTDGYRWCGTTEDYDRDKKYGFCPE (other, cysteine pairing not given here; also: biotinylated for plate binding assay, also called M2) [module 2 of the CBD of MMP-2]', 5.43);

Now look at this entry.
Exam item: Could you please provide reported pKd for peptide 333 comprising three modules corresponding to module 3 of the CBD of MMP-2 (designed binder) EGQVVSTVYGNSEGAPCVFPFTFLGNKYESCTSAGRSDGFLWCATTANYDDDRKWGFCPHEALFTMGGNSEGAPCVFPFTFLGNKYESCTSAGRSDGKRWCATTANYDDDRKWGFCPETAMSTVGGNSEGAPCVFPFTFLGNKYESCTSAGRSDGKMWCATTANYDDDRKWGFCPDQGYSL ? Thanks!
Marked response: 10.80
